Would you mind telling me the reported AC50 of each entry?
biological target: Mu-type opioid receptor (Homo sapiens); further: assay procedure not described here
Sequence (P35372 whole entry): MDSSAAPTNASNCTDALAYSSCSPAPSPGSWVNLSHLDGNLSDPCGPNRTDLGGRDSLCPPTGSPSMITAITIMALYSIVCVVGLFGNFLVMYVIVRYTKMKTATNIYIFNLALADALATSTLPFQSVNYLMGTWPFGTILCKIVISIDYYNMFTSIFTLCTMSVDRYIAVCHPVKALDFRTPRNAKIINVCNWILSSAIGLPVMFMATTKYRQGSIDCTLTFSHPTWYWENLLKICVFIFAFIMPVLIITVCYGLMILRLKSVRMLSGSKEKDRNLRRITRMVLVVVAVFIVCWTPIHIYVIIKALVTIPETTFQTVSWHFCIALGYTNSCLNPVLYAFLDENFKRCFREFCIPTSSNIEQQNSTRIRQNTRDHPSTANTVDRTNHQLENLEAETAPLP

O=C(O)c1ccc(NC(=O)[C@H](Cc2ccc(O)cc2)NC(=O)c2ccccc2)cc1 [BENTIROMIDE] ... > 30 µM
CC(Cc1cccc(C(F)(F)F)c1)NCCOC(=O)c1ccccc1 (centres undefined) [BENFLUOREX] ... 17 µM
CNC(=C[N+](=O)[O-])NCCSCc1csc(CN(C)C)n1 [NIZATIDINE] ... > 30 µM

State recorded AC50 for all listed molecules.
1. NNC(=O)c1ccncc1 [ISONIAZID]
2. Cc1ccccc1N1C(=O)c2cc(S(N)(=O)=O)c(Cl)cc2NC1C (centres undefined) [METOLAZONE]
3. Cc1ccccc1-n1c(CF)nc2ccc(N)cc2c1=O [AFLOQUALONE]
4. CCCc1nc2c(C)cc(-c3nc4ccccc4n3C)cc2n1Cc1ccc(-c2ccccc2C(=O)O)cc1
5. CC(C)[C@@H](C)/C=C/[C@@H](C)[C@H]1CC[C@H]2/C(=C/C=C3\C[C@@H](O)CC[C@@H]3C)CCC[C@]12C [DIHYDROTACHYSTEROL]
6. Clc1ccc(Cn2c(CN3CCCC3)nc3ccccc32)cc1 [CLEMIZOLE]

Data returned:
> 30 µM
> 30 µM
> 30 µM
10.8 µM
> 30 µM
> 30 µM

Cited source for all entries: ChEMBL document CHEMBL5291721
